system: TRPC4 (mouse), co-expressed with 5HT1a in HEK293; test: calcium flux potentiators in TRPC4/5HT1a cells, confirmation, counter-screen for TRPC4 potentiator project, cell-based, second counter screen, HEK293 TRPC4/5HT1a, Fluo-4 (AID 434979); conditions: Fluo-4 calcium flux, at 10 µM, serotonin added at its EC20 dose; hits give high values
Activity calls are given as the source filed them.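 How the source made its calls: active means signal rise over 3 SD above mean of control wells given weak agonist, in both repeats and first screen; inactive means the rest.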
READOUT: potentiation

Known potentiation results, listed for orientation:
Cc1ccc(C2(O)CN(c3ccccc3C)C3=[N+]2CCS3)cc1 (configuration not stated) : inactive
OC(CNC1CCCc2ccccc21)COc1ccc2ccccc2c1 (configuration not stated) : inactive
CC1CCCN(CCOCCOc2ccccc2-c2ccccc2)C1 (configuration not stated) : inactive
CCN1CCN(c2c(Cl)cccc2NC(=O)c2ccc3nsnc3c2)CC1 : inactive

# batch: return potentiation for each of the 4 molecules below
1. CCN1CCN(c2ccc(S(=O)(=O)N3CCCCC3)cc2NC(=O)COc2ccccc2)CC1
2. COc1cccc(C(=O)N(C)CC2CCN(CCc3cccc(C(F)(F)F)c3)CC2)c1
3. CCCCc1cc(O)c(CCCC)c(O)c1
4. Cc1cccc(C)c1OCC(O)CN (configuration not stated)

OUTPUT:
["inactive", "inactive", "inactive", "inactive"]

# batch: return potentiation for each of the 5 molecules below
1. O=C(N/N=C/c1cc([N+](=O)[O-])cc(Br)c1O)C12CC3CCC(CC(C3)C1)C2
2. Cn1c(-c2cccc3ccccc23)n[nH]c1=S
3. Cc1ccc(C)c(CN2CCC(CNC(=O)CCc3nnc4ccc(N5CCCCC5)nn34)CC2)c1
4. Cc1cccc(NC(=S)NCC(c2cccnc2)N(C)C)c1 (configuration not stated)
5. O=C(N/N=C/c1cccnc1)c1ccccc1OCc1ccc(Cl)cc1

OUTPUT:
1. inactive
2. inactive
3. inactive
4. inactive
5. inactive

# batch: return potentiation for each of the 2 molecules below
1. COc1ccc(C(=O)NC(=S)NNC(=O)c2cccc(C)c2)cc1
2. CCN(CC)CCCOc1ccc(Cl)c(Cl)c1

OUTPUT:
1. inactive
2. 21.3% (active)

---

tested on: transient receptor potential cation channel C4 (TRPC4), mouse; assay: mouse TRPC4 modulation by TRPC6 hits, confirmation, selectivity assay for TRPC6 inhibitor project, cell-based, HEK293 TRPC4/mu-opioid, membrane potential dye (AID 2777); settings: membrane potential fluorescence, at 10 µM;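 further: integrated kinetic ratio of fluorescence range over baseline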
This is one part of the list. The source made the active and inactive calls.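 How the source made its calls: active means rise or fall in signal beyond 3 SD of buffer-only wells in both replicate plates, either sign; inactive means the rest.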
READOUT: activity change, negative = inhibition

CCN(CC)CCn1c2ccc(Cl)cc2c2nc(C)sc21 : inactive
COc1ccc(CC(=O)Nc2sc(Cc3ccccc3)c(C)c2C(N)=O)cc1 : inactive
O=C(NNS(=O)(=O)c1ccc(Cl)cc1)C1CCN(Cc2ccccc2)CC1 : inactive
CN(C)c1ccc(C2N(C)C(=O)c3ccccc3N2C)cc1 (stereo unspecified) : inactive
CCCCCCCCCCOC(=O)C[N+](C)(C)CC1CCCCC1O (stereo unspecified) : 7.58% (active)

Continue with the molecule presented below.
CC1CC(C)CN(C/C=C/c2ccccc2[N+](=O)[O-])C1 (stereo unspecified) has a reported activity change, negative = inhibition of 4.24% (active)

---

target: Potassium voltage-gated channel subfamily KQT member 2 (Rattus norvegicus) (UniProt O88943); test: rat KCNQ2 channel potentiation, selectivity assay for KCNQ1 potentiator project, KCNQ2-CHO-K1 cells (AID 493009); settings: FluxOR thallium flux fluorescence, at 10 µM; hits give high values, scaled: buffer 0, activator control 100;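 further: assay conditions were tuned for KCNQ1 rather than KCNQ2 modulators; signal is max minus min fluorescence divided by baseline after thallium stimulus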
Sequence (O88943 whole entry, looked up): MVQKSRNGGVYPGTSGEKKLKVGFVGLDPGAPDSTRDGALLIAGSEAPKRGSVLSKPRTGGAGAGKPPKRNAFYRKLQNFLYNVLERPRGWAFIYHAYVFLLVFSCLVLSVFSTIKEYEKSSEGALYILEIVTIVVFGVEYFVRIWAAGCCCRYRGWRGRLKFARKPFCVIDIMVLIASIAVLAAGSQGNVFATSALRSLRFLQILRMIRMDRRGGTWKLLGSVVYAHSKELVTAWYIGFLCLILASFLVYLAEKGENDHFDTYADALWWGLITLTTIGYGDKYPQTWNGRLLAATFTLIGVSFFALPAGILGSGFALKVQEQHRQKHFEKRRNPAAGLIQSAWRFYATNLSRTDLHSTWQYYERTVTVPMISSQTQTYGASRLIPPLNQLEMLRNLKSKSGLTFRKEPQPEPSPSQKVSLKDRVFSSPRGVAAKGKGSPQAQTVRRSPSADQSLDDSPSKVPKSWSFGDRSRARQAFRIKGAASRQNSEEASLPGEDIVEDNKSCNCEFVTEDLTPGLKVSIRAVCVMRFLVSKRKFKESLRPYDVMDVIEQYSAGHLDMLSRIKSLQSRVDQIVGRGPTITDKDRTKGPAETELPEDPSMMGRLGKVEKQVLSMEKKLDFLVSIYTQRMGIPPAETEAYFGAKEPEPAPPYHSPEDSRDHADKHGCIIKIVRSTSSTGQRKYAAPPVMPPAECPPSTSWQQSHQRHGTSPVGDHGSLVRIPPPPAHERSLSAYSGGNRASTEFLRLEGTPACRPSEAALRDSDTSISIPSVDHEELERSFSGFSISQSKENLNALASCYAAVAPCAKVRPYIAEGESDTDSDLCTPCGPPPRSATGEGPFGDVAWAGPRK
The source made the active and inactive calls.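 How the source made its calls: active means mean duplicate potentiation above the buffer control mean plus 5 SD of buffer wells; inactive means the rest.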
READOUT: potentiation

Known potentiation results, listed for orientation:
COc1cc(CN2CCC(C)CC2)ccc1OCc1ccccc1 : 300% (active)
CCOC(=O)c1sc2ncnc(NCC(c3cccs3)N(C)C)c2c1C (stereo not drawn) : 263% (active)
CCOc1ccc(S(=O)(=O)Nc2cc(OC)ccc2OC)cc1 : inactive
CC(C)OC(=O)c1c(NS(=O)(=O)c2ccccc2)sc2c1CCCC2 : 338% (active)
Cc1ccc(CCNC(=O)C2CC(c3cccc(F)c3)=NO2)cc1 (stereo not drawn) : inactive
CN(C)CCCN(C(=O)CCOc1ccccc1)c1nc2c(F)cccc2s1 : inactive
Cc1cc(S(=O)(=O)N2CCOCC2)ccc1OCC(=O)NCc1ccccn1 : inactive
Cc1ccc(-n2ncc3c(SCC(=O)NNC(=O)c4ccco4)ncnc32)cc1 : inactive
S=c1nc(-c2ccccc2)[nH]c2ccccc12 : 294% (active)
Oc1[nH]c2ccc(Br)cc2c1N=NC(=S)Nc1ccc(F)cc1 : 160% (active)

# batch: return potentiation for each of the 4 compounds below
1. COc1ccc(-c2csc(N(CCCN(C)C)C(=O)c3ccccc3Cl)n2)cc1
2. CCN(c1ccccc1)S(=O)(=O)c1ccc(OC)c(OC)c1
3. O=C(NC(=S)NCCC1=CCCCC1)c1ccccc1Br
4. CC(/C=N/n1c(-c2ccc(Cl)cc2)n[nH]c1=S)=C\c1ccco1

OUTPUT:
1: inactive; 2: 162% (active); 3: 186% (active); 4: inactive

# batch: return potentiation for each of the 4 compounds below
1. COc1ccc(OCC(=O)Nc2cccc(C(C)=O)c2)cc1
2. CC(C)Cn1c(=O)c(C(=O)N/N=C/c2cccc(F)c2)c(O)c2ccccc21
3. O=C(Nc1ccncc1)c1ccc([N+](=O)[O-])cc1Cl
4. CCCCOC(=O)c1ccc(NC(=S)NC(=O)c2ccco2)cc1

OUTPUT:
1: inactive; 2: inactive; 3: inactive; 4: inactive
